All values here come from ChEMBL document CHEMBL4616670.

- assayExplanation: physchem
- testConditions: octanol/water, pH 2
- Description: Octanol/water partition coefficient, log D of the compound at pH 2
measurementType: logD

{"compound": "O=P1(c2ccc(C(F)(F)F)cc2)OCCCO1", "testResult": 2.1}
{"compound": "O=P1(c2ccc(C(F)(F)F)cc2)CCCCC1", "testResult": 2.4}
{"compound": "CS(=N)(=O)c1ccc(C(F)(F)F)cc1 (stereo unspecified)", "testResult": 0.8}
{"compound": "CNC(=O)c1ccc(C(=O)Nc2ccc(C)c(Nc3nccc(-c4cccnc4)n3)c2)cc1", "testResult": 0.5}
{"compound": "CC(C)N1CCP(=O)(c2ccc(C(F)(F)F)cc2)CC1", "testResult": 0.2}
{"compound": "COP(=O)(O)c1ccc(C(F)(F)F)cc1", "testResult": 1.3}
{"compound": "COP(=O)(OC)c1ccc(C(F)(F)F)cc1", "testResult": 2.5}
{"compound": "CN1CCP(=O)(c2ccc(C(F)(F)F)cc2)CC1", "testResult": 0}
{"compound": "CC(C)OP(=O)(OC(C)C)c1ccc(C(F)(F)F)cc1", "testResult": 4.3}
{"compound": "CCOP(=O)(OCC)c1ccncc1", "testResult": 0}
{"compound": "C[S+]([O-])c1ccc(C(F)(F)F)cc1 (stereo unspecified)", "testResult": 1.7}

###

- assayExplanation: Equilibrium thermodynamic aqueous solubility of the compound in pH 2.1 buffer incubated for 24 hrs by UV-spectroscopy based shake flask method
- Type: physicochemical
- testConditions: read-out: Therm_solubility
Reported solubility thermodynamic at 24 h values are given for each entry in this list.
measurementType: solubility thermodynamic at 24 h (mg/mL)

{"smi": "CCOP(=O)(O)c1ccc(C(F)(F)F)cc1", "measurementType": "solubility thermodynamic at 24 h", "operatorSymbol": "=", "testResult": 280}
{"smi": "O=P(O)(OCCO)c1ccc(C(F)(F)F)cc1", "measurementType": "solubility thermodynamic at 24 h", "operatorSymbol": ">", "testResult": 28.5}

###

- assayExplanation: physchem
- testConditions: pH 6.8 buffer
measurementType: solubility thermodynamic at 24 h (µg/mL)

{"compound": "CP(C)(=O)c1ccc(C(F)(F)F)cc1", "measurementType": "solubility thermodynamic at 24 h", "operatorSymbol": ">", "testResult": 30000}
{"compound": "CC(C)(C)NC(=O)c1ccc(C(F)(F)F)cc1", "measurementType": "solubility thermodynamic at 24 h", "operatorSymbol": "=", "testResult": 10}
{"compound": "O=S1(c2ccc(C(F)(F)F)cc2)=NCCCC1 (configuration not stated)", "measurementType": "solubility thermodynamic at 24 h", "operatorSymbol": "=", "testResult": 4700}
{"compound": "CC1(C)COP(=O)(c2ccc(C(F)(F)F)cc2)OC1", "measurementType": "solubility thermodynamic at 24 h", "operatorSymbol": "=", "testResult": 2800}
{"compound": "CN1CCCN(C)P1(=O)c1ccc(C(F)(F)F)cc1", "measurementType": "solubility thermodynamic at 24 h", "operatorSymbol": "=", "testResult": 11100}
{"compound": "CC(C)N1CCP(=O)(c2ccc(C(F)(F)F)cc2)CC1", "measurementType": "solubility thermodynamic at 24 h", "operatorSymbol": "=", "testResult": 23000}
{"compound": "Cc1ccc(NC(=O)c2ccc(P(C)(C)=O)cc2)cc1Nc1nccc(-c2cccnc2)n1", "measurementType": "solubility thermodynamic at 24 h", "operatorSymbol": "=", "testResult": 20}
{"compound": "C[S+]([O-])c1ccc(C(F)(F)F)cc1 (configuration not stated)", "measurementType": "solubility thermodynamic at 24 h", "operatorSymbol": "=", "testResult": 11100}
{"compound": "CS(=O)(=O)c1ccc(C(F)(F)F)cc1", "measurementType": "solubility thermodynamic at 24 h", "operatorSymbol": "=", "testResult": 300}
{"compound": "CN1CCP(=O)(c2ccc(C(F)(F)F)cc2)CC1", "measurementType": "solubility thermodynamic at 24 h", "operatorSymbol": ">", "testResult": 30000}
{"compound": "CNC(=O)c1ccc(C(F)(F)F)cc1", "measurementType": "solubility thermodynamic at 24 h", "operatorSymbol": "=", "testResult": 200}
{"compound": "O=P1(c2ccc(C(F)(F)F)cc2)OCCCO1", "measurementType": "solubility thermodynamic at 24 h", "operatorSymbol": "=", "testResult": 8800}
{"compound": "CCOP(C)(=O)c1ccncc1 (configuration not stated)", "measurementType": "solubility thermodynamic at 24 h", "operatorSymbol": ">", "testResult": 30000}
{"compound": "CCOP(=O)(OCC)c1ccc(C(F)(F)F)cc1", "measurementType": "solubility thermodynamic at 24 h", "operatorSymbol": "=", "testResult": 1300}
{"compound": "O=P1(c2ccc(C(F)(F)F)cc2)CCCC1", "measurementType": "solubility thermodynamic at 24 h", "operatorSymbol": "=", "testResult": 24500}
{"compound": "O=P1(c2ccc(C(F)(F)F)cc2)CCOCC1", "measurementType": "solubility thermodynamic at 24 h", "operatorSymbol": ">", "testResult": 30000}
{"compound": "O=P1(c2ccc(C(F)(F)F)cc2)OCCNCCO1", "measurementType": "solubility thermodynamic at 24 h", "operatorSymbol": ">", "testResult": 10000}
{"compound": "Cc1ccc(NC(=O)c2ccc(P(C)(=O)O)cc2)cc1Nc1nccc(-c2cccnc2)n1", "measurementType": "solubility thermodynamic at 24 h", "operatorSymbol": ">", "testResult": 10000}
{"compound": "CS(=N)(=O)c1ccc(C(F)(F)F)cc1 (configuration not stated)", "measurementType": "solubility thermodynamic at 24 h", "operatorSymbol": "=", "testResult": 9100}
{"compound": "CCP(=O)(CC)c1ccc(C(F)(F)F)cc1", "measurementType": "solubility thermodynamic at 24 h", "operatorSymbol": "=", "testResult": 22500}
{"compound": "O=P1(c2ccc(C(F)(F)F)cc2)NCCCN1", "measurementType": "solubility thermodynamic at 24 h", "operatorSymbol": "=", "testResult": 12300}
{"compound": "CNS(=O)(=O)c1ccc(C(F)(F)F)cc1", "measurementType": "solubility thermodynamic at 24 h", "operatorSymbol": "=", "testResult": 900}
{"compound": "O=P1(c2ccc(C(F)(F)F)cc2)CCNCC1", "measurementType": "solubility thermodynamic at 24 h", "operatorSymbol": "=", "testResult": 28000}
{"compound": "CN=S(=O)(NC)c1ccc(C(F)(F)F)cc1 (configuration not stated)", "measurementType": "solubility thermodynamic at 24 h", "operatorSymbol": "=", "testResult": 1200}
{"compound": "CN1CCN(C)P1(=O)c1ccc(C(F)(F)F)cc1", "measurementType": "solubility thermodynamic at 24 h", "operatorSymbol": ">", "testResult": 30000}
{"compound": "CC(C)OP(=O)(OC(C)C)c1ccc(C(F)(F)F)cc1", "measurementType": "solubility thermodynamic at 24 h", "operatorSymbol": "=", "testResult": 400}
{"compound": "NC(=O)c1ccc(C(F)(F)F)cc1", "measurementType": "solubility thermodynamic at 24 h", "operatorSymbol": "=", "testResult": 300}

###

Catalogue of solubility thermodynamic at 24 h values
- assayExplanation: physchem
- testConditions: pH 6.8 buffer

{"molecule": "CN=S(=O)(NC)c1ccc(C(F)(F)F)cc1 (stereo not drawn)", "solubility thermodynamic at 24 h": "> 57 µg/mL"}
{"molecule": "CC(C)(C)OC(=O)c1ccc(C(F)(F)F)cc1", "solubility thermodynamic at 24 h": "7 µg/mL"}
{"molecule": "COP(=O)(OC)c1ccc(C(F)(F)F)cc1", "solubility thermodynamic at 24 h": "50 µg/mL"}
{"molecule": "CC1(C)COP(=O)(c2ccc(C(F)(F)F)cc2)OC1", "solubility thermodynamic at 24 h": "> 67 µg/mL"}
{"molecule": "CNS(=O)(=O)c1ccc(C(F)(F)F)cc1", "solubility thermodynamic at 24 h": "> 49 µg/mL"}
{"molecule": "CC(C)(C)NC(=O)c1ccc(C(F)(F)F)cc1", "solubility thermodynamic at 24 h": "14 µg/mL"}
{"molecule": "O=C(O)c1ccc(C(F)(F)F)cc1", "solubility thermodynamic at 24 h": "> 48 µg/mL"}
{"molecule": "CS(=N)(=O)c1ccc(C(F)(F)F)cc1 (stereo not drawn)", "solubility thermodynamic at 24 h": "> 50 µg/mL"}
{"molecule": "C[S+]([O-])c1ccc(C(F)(F)F)cc1 (stereo not drawn)", "solubility thermodynamic at 24 h": "> 46 µg/mL"}
{"molecule": "O=P1(c2ccc(C(F)(F)F)cc2)NCCCO1 (stereo not drawn)", "solubility thermodynamic at 24 h": "> 60 µg/mL"}
{"molecule": "CCOP(=O)(O)c1ccc(C(=O)Nc2ccc(C)c(Nc3nccc(-c4cccnc4)n3)c2)cc1", "solubility thermodynamic at 24 h": "> 122 µg/mL"}
{"molecule": "O=P1(c2ccc(C(F)(F)F)cc2)OCCNCCO1", "solubility thermodynamic at 24 h": "66 µg/mL"}
{"molecule": "O=P1(c2ccc(C(F)(F)F)cc2)OCCCO1", "solubility thermodynamic at 24 h": "> 66 µg/mL"}
